- targetOfAssay: T1, human latent myostatin (human, UniProt O14793 25-266; O14793 267-375)
- T1 construct: non-covalent complex of two propeptides and the mature homodimer; also called human myostatin latent form
- T1 sequence 1: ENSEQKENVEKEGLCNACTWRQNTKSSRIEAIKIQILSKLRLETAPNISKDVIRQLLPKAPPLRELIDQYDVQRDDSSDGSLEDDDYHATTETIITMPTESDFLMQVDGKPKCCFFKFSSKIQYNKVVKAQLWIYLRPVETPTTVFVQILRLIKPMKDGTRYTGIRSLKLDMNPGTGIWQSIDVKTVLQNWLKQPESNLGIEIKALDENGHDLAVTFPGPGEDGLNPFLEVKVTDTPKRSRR
- T1 sequence 2: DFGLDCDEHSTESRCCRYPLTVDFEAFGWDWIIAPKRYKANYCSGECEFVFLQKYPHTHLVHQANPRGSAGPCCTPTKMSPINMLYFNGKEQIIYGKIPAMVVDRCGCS
- testMethodNotes: SPR 37C
observedProperty: ratio of KD at pH 5.8/pH7.4
The reply should be a number, written without any unit.

The following binders have reported results that may help.
MS_M103205H795-SG1/M103202L1060-SK1 (antibody, human IgG1, kappa, V domains shown, also called MS1032LO24-SG1) VH: QVTLKESGPVLVKPTETLTLTCTVSGIDLSHDDISWVRQAPGKGLEWVGIISYAGSTYYASWAKGRLTISKDTSKNQVVLTMTNMDPVDTATYYCARGVPAYSHGGDLWGQGTLVTVSS VL: DIVMTQSPATLSLSPGERATLSCTSSQSVFHENWLSWFQQKPGQPPKLLIYWASTLAWGVPSRFSGSGSGTDFTLTISSLQPEDAATYYCAGGYGGGRYAFGQGTKVEIKR: 9
MS_M103205H1057-SG1/M103202L889-SK1 (antibody, human IgG1, kappa, V domains shown, also called MS1032LO12-SG1) VH: QVTLKESGPVLVKPTETLTLTCTVSGIDLSHTDISWVRQAPGKGLEWVGIISYAGSKYKASWAKGRLTISKDTSKNQVVLTMTNMDPVDTATYYCARGVPAYSHGGDLWGQGTLVTVSS VL: DIVMTQSPATLSLSPGERATLSCTSSQSVYHANWLSWFQQKPGQPPKLLIYWASTLAYGVPSRFSGSGSGTDFTLTISSLQPEDAATYYCAGGYGGGRYAFGQGTKVEIKR: 209

Would you kindly look at the next entry?
Record MS_M103205H1047-SG1/M103202L889-SK1 (antibody, human IgG1, kappa, V domains shown, also called MS1032LO11-SG1) VH: QVTLKESGPVLVKPTETLTLTCTVSGIDLSHTDISWVRQAPGKGLEWVGIISYAGKKYYASWAKGRLTISKDTSKNQVVLTMTNMDPVDTATYYCARGVPAYSHGGDLWGQGTLVTVSS VL: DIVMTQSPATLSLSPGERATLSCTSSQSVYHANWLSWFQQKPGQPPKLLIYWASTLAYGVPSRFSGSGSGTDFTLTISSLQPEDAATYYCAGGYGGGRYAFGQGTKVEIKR , field ratio of KD at pH 5.8/pH7.4: 341
